target: first (BD1: amino acids K57-E168) bromodomain of BRD4 (Homo sapiens, UniProt O60885); construct: His-tagged first (BD1: amino acids K57-E168); experiment: TR-FRET bromodomain binding assay, BRD4 BD1; details: TR-FRET assay protocol (A-G, compound concentration range); Ki calculated from IC50, probe Kd and probe concentration; read-out: TR-FRET Binding Ki: BRD4 (BDI_K57-E168)
Cut-off 0.2 µM on Ki: below means 1, at or above means 0.

Would you please look over these solved cases?
-- ask Please let me know if "COc1cnccc1-c1cc(=O)n(C)nc1-c1ccccc1Oc1ccccc1" shows Ki below 0.2 µM.
-- reply 0

-- ask Record "Cn1nc(-c2ccccc2Oc2ccccc2)c(-c2cnn(CCN3CCOCC3)c2)cc1=O" : is its Ki strictly below 0.2 µM?
-- reply 0

---
-- ask Ki strictly < 0.2 µM for this compound? "Cn1cc(-c2cc(NC(=O)CN)ccc2Oc2ccccc2)ccc1=O"
-- reply 0
